Quick list: Bliss excess per entry.
# Tested on: LNZTA3WT4 (Low Grade Glioma)
# EXPERIMENT: Bliss excess, mean over the matrix (fraction); higher = more synergy
Number only, no unit.

{"COMPOUND": "NC1(C(=O)N[C@@H](CCO)c2ccc(Cl)cc2)CCN(c2ncnc3[nH]ccc23)CC1 [Capivasertib] + Cn1cnc2c(F)c(Nc3ccc(Br)cc3Cl)c(C(=O)NOCCO)cc21 [Selumetinib] (first compound max 10 µM, 7x7, partner max 10 µM)", "Bliss excess": -0.0292}

Then this compound:
Bliss excess lookup needed for CN(CCO)CC[C@H](CSc1ccccc1)Nc1ccc(S(=O)(=O)NC(=O)c2ccc(N3CCC([C@@H](O)c4ccccc4-c4ccc(Cl)cc4)CC3)cc2)cc1S(=O)(=O)C(F)(F)F [AZD4320] + C=CCn1c(=O)c2cnc(Nc3ccc(N4CCN(C)CC4)cc3)nc2n1-c1cccc(C(C)(C)O)n1 [AZD1775] (first compound max 1 µM, partner max 1 µM) , thanks. -0.0201

----------
# Tested on: SAS (Oral Cavity Carcinoma)
# EXPERIMENT: combination Emax (second highest fraction inhibited in the dose matrix, 72 h); higher = more inhibition; extreme values may be limits of the assay
ENDPOINT_NAME: combination Emax

May I ask what combination Emax has been recorded for COc1nnc2ccc(N3CCC(c4ccc(OCCN5CCN(C)C(=O)[C@H]5C)cc4)CC3)nn12 [AZD5153] + CC1(C)CCC(CN2CCN(c3ccc(C(=O)NS(=O)(=O)c4ccc(NCC5CCOCC5)c([N+](=O)[O-])c4)c(Oc4cnc5[nH]ccc5c4)c3)CC2)=C(c2ccc(Cl)cc2)C1 [Venetoclax] (first compound max 1 µM, 7x7, partner max 1 µM) ? 0.754

----------
Bliss excess values by entry
# Tested on: WSU-NHL (B-Cell Non-Hodgkin's Lymphoma)
# EXPERIMENT: Bliss excess, mean over the matrix (fraction); higher = more synergy
Hey, just send me the number, nothing else.

Here are 3 molecules together with their reported answers.
{"MOLECULE": "CC1(C)CCC(CN2CCN(c3ccc(C(=O)NS(=O)(=O)c4ccc(NCC5CCOCC5)c([N+](=O)[O-])c4)c(Oc4cnc5[nH]ccc5c4)c3)CC2)=C(c2ccc(Cl)cc2)C1 [Venetoclax] + Cn1cnc2c(F)c(Nc3ccc(Br)cc3Cl)c(C(=O)NOCCO)cc21 [Selumetinib] (first compound max 1 µM, 7x7, partner max 3 µM)", "Bliss excess": -0.131}
{"MOLECULE": "CN(CCO)CC[C@H](CSc1ccccc1)Nc1ccc(S(=O)(=O)NC(=O)c2ccc(N3CCC([C@@H](O)c4ccccc4-c4ccc(Cl)cc4)CC3)cc2)cc1S(=O)(=O)C(F)(F)F [AZD4320] + CC(=O)O[C@H]1C(=O)[C@@]2(C)[C@H]([C@H](OC(=O)c3ccccc3)[C@]3(O)C[C@H](OC(=O)[C@H](O)[C@@H](NC(=O)c4ccccc4)c4ccccc4)C(C)=C1C3(C)C)[C@]1(OC(C)=O)CO[C@@H]1C[C@@H]2O [Paclitaxel] (first compound max 1 µM, 7x7, partner max 3 µM)", "Bliss excess": 0.0294}
{"MOLECULE": "C[C@@H](Nc1cc(F)cc(F)c1)c1cc(C(=O)N(C)C)cc2c(=O)cc(N3CCOCC3)oc12 [AZD8186] + C1CN(CCC1(C(=O)N[C@@H](CCO)C2=CC=C(C=C2)Cl)N)C3=NC=NC4=C3C=CN4 [AZD5363] (first compound max 10 µM, 7x7, partner max 10 µM)", "Bliss excess": -0.0018}

Given C[C@@H]1COCCN1c1cc(C2([S@](C)(=N)=O)CC2)nc(-c2ccnc3[nH]ccc23)n1 [AZD6738] + O=C(c1cc(Cc2n[nH]c(=O)c3ccccc23)ccc1F)N1CCN(C(=O)C2CC2)CC1 [Olaparib] (first compound max 10 µM, 7x7, partner max 10 µM) , state its recorded Bliss excess. -0.0379

Would you kindly share the measured Bliss excess for CS(=O)(=O)CCNCc1ccc(-c2ccc3ncnc(Nc4ccc(OCc5cccc(F)c5)c(Cl)c4)c3c2)o1 [Lapatinib] + NC1(c2ccc(-c3nc4ccn5c(=O)[nH]nc5c4cc3-c3ccccc3)cc2)CCC1 [MK-2206] (first compound max 10 µM, 7x7, partner max 10 µM) ? -0.0237

Form field: reported Bliss excess of COc1cc2c(cc1OCCCCCOc1cc3c(cc1OC)C(=O)N1C=C(C)C[C@H]1C=N3)N=C[C@@H]1CC(C)=CN1C2=O [SG3199] + O=C(c1cc(Cc2n[nH]c(=O)c3ccccc23)ccc1F)N1CCN(C(=O)C2CC2)CC1 [Olaparib] (first compound max 0.001 µM, 7x7, partner max 10 µM) -0.0156

The reported numbers originate from the supplement of paper PMC11061612.
